Consider the following sequences; for each one, report its binding signal.
system-under-test: OsWRKY34 (Oryza sativa, UniProt Q0JBA9 1-250)
Sequence (Q0JBA9 entry or part of it): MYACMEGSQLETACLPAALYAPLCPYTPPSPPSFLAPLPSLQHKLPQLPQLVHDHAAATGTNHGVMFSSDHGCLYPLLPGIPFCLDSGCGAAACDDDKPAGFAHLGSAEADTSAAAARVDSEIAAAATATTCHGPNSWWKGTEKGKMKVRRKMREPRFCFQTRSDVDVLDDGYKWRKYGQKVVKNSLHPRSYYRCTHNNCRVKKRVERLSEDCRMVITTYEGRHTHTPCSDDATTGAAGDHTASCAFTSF
run-description: protein-binding microarray (RPBM); PBS, 2% BSA, 51.3 ng/ul salmon testes DNA, 50 uM zinc acetate, 200 nM TF, 25 C, 1 h; high values mean tight binding
conditions: protein: recombinant; tags: N-terminal polyhistidine and DsRed monomer fusion (pET32a); label: CyDye5-dUTP incorporated in the synthesized complementary strand; 3' TTTTT single-stranded linker to array surface; dsDNA, one strand shown
Whole data set: some 68,000 sequences, median “fluorescence intensity (a.u.)” near 9,100, cut for the highest 2% near 16,000. Many of the other results were omitted from the sample, so the highest values are more common in it than they were.

Example cases with answers are listed next.
So the reported binding signal for `ACAACTCACTCTCTTCATTTTCCATTCTCGTGCTTTTCAACGGAGTCACCTAGTGCAG` , on OsWRKY34 (Oryza sativa, UniProt Q0JBA9 1-250), turned out to be 16600 fluorescence intensity (a.u.)

So the reported binding signal for `CGTTTCAAAATGTTTGACACCGTTGACTTTTTAGTACATGCGGAGTCACCTAGTGCAG` , on OsWRKY34 (Oryza sativa, UniProt Q0JBA9 1-250), turned out to be 35900 fluorescence intensity (a.u.)

So the reported binding signal for `ATGTAAGTCATTCTAGCATTTTTTACATTCATATTGATGTCGGAGTCACCTAGTGCAG` , on OsWRKY34 (Oryza sativa, UniProt Q0JBA9 1-250), turned out to be 9380 fluorescence intensity (a.u.)

So the reported binding signal for `CACACACACCGATCTTTTCATTCATTCTTTTCTTTCTTTTCGGAGTCACCTAGTGCAG` , on OsWRKY34 (Oryza sativa, UniProt Q0JBA9 1-250), turned out to be 18700 fluorescence intensity (a.u.)

So the reported binding signal for `TTTTGCTACAGTGCTCGGATATATCTGGGACGTCCATTTTCGGAGTCACCTAGTGCAG` , on OsWRKY34 (Oryza sativa, UniProt Q0JBA9 1-250), turned out to be 10200 fluorescence intensity (a.u.)

So the reported binding signal for `AATACATTTTACCTCGATTGTTATTAGCATATTTTTTTTGCGGAGTCACCTAGTGCAG` , on OsWRKY34 (Oryza sativa, UniProt Q0JBA9 1-250), turned out to be 8890 fluorescence intensity (a.u.)

I'm hoping you can list binding signal for every sequence here, please.
1. TGATATCTTTTTCTTTAATGACTTTCCGTGTTTTCAACGTCGGAGTCACCTAGTGCAG
2. AGTTTTTGCTTGTAACGTTTCACCACTCGTCTTATTCAAACGGAGTCACCTAGTGCAG
3. TTTCTTTGACTCGGTGACTTTGTGAGAGATGTTTTATGCCCGGAGTCACCTAGTGCAG
4. CCACCACGGACTCCGCCGCCGCTCCCGCCACCGCCACATCCGGAGTCACCTAGTGCAG
5. ACTCACTTCAAAATTTTCACATCCTCTCTCATCATTTTTTCGGAGTCACCTAGTGCAG

## Result
["8090 fluorescence intensity (a.u.)", "8340 fluorescence intensity (a.u.)", "9190 fluorescence intensity (a.u.)", "10600 fluorescence intensity (a.u.)", "11100 fluorescence intensity (a.u.)"]

I'm hoping you can list binding signal for every sequence here, please.
1. TTGCCGTACAATCTTGATTTGGAGATCTTCCTGGCCAACACGGAGTCACCTAGTGCAG
2. TGTGATTTGCACCGCATACTTTCCCCGACAATAGATCATCCGGAGTCACCTAGTGCAG
3. CGACAAAATTCAACCGTAATTTCAACGTTTTCCTAACTTTCGGAGTCACCTAGTGCAG
4. ACGCGCGCTACATTCTCCACCTCTCCACCATTCCAAACTGCGGAGTCACCTAGTGCAG
5. CAACACATCTCTTGCATTTTTTTTTCTTTGCATTCTCATTCGGAGTCACCTAGTGCAG
6. TTTATTAGTTTGTGTCCTGGTTTTCTTTTTCAGTTAGATTCGGAGTCACCTAGTGCAG

## Result
1. 9120 fluorescence intensity (a.u.)
2. 8850 fluorescence intensity (a.u.)
3. 8990 fluorescence intensity (a.u.)
4. 9850 fluorescence intensity (a.u.)
5. 8200 fluorescence intensity (a.u.)
6. 8430 fluorescence intensity (a.u.)

I'm hoping you can list binding signal for every sequence here, please.
1. TTCCTTTTTCATCTTCTTTTCACATTTTTTCTTTATTTTTCGGAGTCACCTAGTGCAG
2. CCCTCTCTCTATTTAAGCAAGCACATTCTCCTCTTCTTCTCGGAGTCACCTAGTGCAG

## Result
1: 12400 fluorescence intensity (a.u.); 2: 8240 fluorescence intensity (a.u.)

###

Consider the following sequences; for each one, report its binding signal.
system-under-test: OsWRKY34 (Oryza sativa, UniProt Q0JBA9 1-250)
run-description: protein-binding microarray (RPBM); PBS, 2% BSA, 51.3 ng/ul salmon testes DNA, 50 uM zinc acetate, 200 nM TF, 25 C, 1 h; high values mean tight binding
conditions: protein: recombinant; tags: N-terminal polyhistidine and DsRed monomer fusion (pET32a); label: CyDye5-dUTP incorporated in the synthesized complementary strand; 3' TTTTT single-stranded linker to array surface; dsDNA, one strand shown
Whole data set: some 68,000 sequences, median “fluorescence intensity (a.u.)” near 9,100, cut for the highest 2% near 16,000. For the sample, the highest values were picked, then their nearest neighbours and some sequences at random.

Record `ACGACAAGAACCACCTCTCTCTCTCTCTCTCACTGTCCACCGGAGTCACCTAGTGCAG` . Reported binding signal: 9040 fluorescence intensity (a.u.)

Record `ATATCGAAATTGATGCTTGACCAGTCAACACTACTTAATCCGGAGTCACCTAGTGCAG` . Reported binding signal: 9070 fluorescence intensity (a.u.)

Record `CCCTCCGCTGAGGTTGCGGTTGATGATCTTTCATCAGTGACGGAGTCACCTAGTGCAG` . Reported binding signal: 8590 fluorescence intensity (a.u.)

Record `GGTGAGCTCTCTTTAATGCATATACACAGCAGCCTATTGCCGGAGTCACCTAGTGCAG` . Reported binding signal: 8440 fluorescence intensity (a.u.)

Record `TCCCTTTTGAGTACCACTGCTGATATCTGGATGCCCGTCACGGAGTCACCTAGTGCAG` . Reported binding signal: 8080 fluorescence intensity (a.u.)

Record `GAGCGGGGCGGGGCTGCATTTGGCGTCGCGATGGACCTCACGGAGTCACCTAGTGCAG` . Reported binding signal: 12600 fluorescence intensity (a.u.)

Record `GACCTACGTCACCACCTTGCATGTCCCACGCGGAGCTCCACGGAGTCACCTAGTGCAG` . Reported binding signal: 9230 fluorescence intensity (a.u.)

Record `AGACTTTATTTTTTCCCTGGGCTAAGGACTAGTCCCATATCGGAGTCACCTAGTGCAG` . Reported binding signal: 8980 fluorescence intensity (a.u.)

Next:
Record `CCACTTGTACATATACAACTTGTTTTGTGGGGAGGGGTGTCGGAGTCACCTAGTGCAG` . Reported binding signal: 12700 fluorescence intensity (a.u.)

###

system-under-test: OsWRKY34 (Oryza sativa, UniProt Q0JBA9 1-250)
run-description: protein-binding microarray (RPBM); PBS, 2% BSA, 51.3 ng/ul salmon testes DNA, 50 uM zinc acetate, 200 nM TF, 25 C, 1 h; high values mean tight binding
conditions: protein: recombinant; tags: N-terminal polyhistidine and DsRed monomer fusion (pET32a); label: CyDye5-dUTP incorporated in the synthesized complementary strand; 3' TTTTT single-stranded linker to array surface; dsDNA, one strand shown
The full ranking holds about 68,000 sequences; the median of “fluorescence intensity (a.u.)” is about 9,100, and the highest 2% start at about 16,000. Only a selection was taken, and the highest values are over-represented in it overall.
property-label: binding signal

So the reported binding signal for `CGTTCCTTGGTATTCTCCCTCGTGGTGTAAATGTACGTATCGGAGTCACCTAGTGCAG` , on OsWRKY34 (Oryza sativa, UniProt Q0JBA9 1-250), turned out to be 9740 fluorescence intensity (a.u.)

I'm hoping you can list binding signal for every sequence here, please.
1. TGCGGGATGGCTGGTTGGTGTGCGTGTGCTTCGGTGCGTTCGGAGTCACCTAGTGCAG
2. GGTTGTGTTCTTGTTGGCGAGGAGGAGAGAGGGGTGGGGTCGGAGTCACCTAGTGCAG
3. GATCCGCGGCGCGGGTGGGGTTGTGGGGCGGGCGGAGATGCGGAGTCACCTAGTGCAG
4. ATTGGGTTCTTGGAGCTGTTGGATTGGGTTTTTTTGGGAGCGGAGTCACCTAGTGCAG
5. TTTCTTGGTTCCTGTGTCTAAGCCAGCTGTAAACTTACAACGGAGTCACCTAGTGCAG
6. AGGTACGCACGCGCGGTGGAGGAGGAGGAGGAGGAGGAGGCGGAGTCACCTAGTGCAG

## Result
["10400 fluorescence intensity (a.u.)", "14700 fluorescence intensity (a.u.)", "19200 fluorescence intensity (a.u.)", "9180 fluorescence intensity (a.u.)", "8450 fluorescence intensity (a.u.)", "10900 fluorescence intensity (a.u.)"]

I'm hoping you can list binding signal for every sequence here, please.
1. CTTCTCCTCTAGTCTGTGGTTGGCTGGCGATGGTGGCTTGCGGAGTCACCTAGTGCAG
2. GTCGGTGGAGCGGCCCTTTTTATTTCTGTGGGAGGAGGGTCGGAGTCACCTAGTGCAG
3. CTGAGTTCTGTATTGGATCAGCTTCATGTTATCGGCATCACGGAGTCACCTAGTGCAG
4. TTCCTTTTGTCCTCCATGCTCTCTGTATGTCGGTATTTTACGGAGTCACCTAGTGCAG
5. GCGGGCAGTGGGCGCGAGATCTCATCCGAGTGGGTGGGCGCGGAGTCACCTAGTGCAG
6. GTCTGAGTACACTTCTGAGGCTTCTTTGGTCGTTTTGGCCCGGAGTCACCTAGTGCAG

## Result
["8820 fluorescence intensity (a.u.)", "9300 fluorescence intensity (a.u.)", "8450 fluorescence intensity (a.u.)", "10500 fluorescence intensity (a.u.)", "8060 fluorescence intensity (a.u.)", "9790 fluorescence intensity (a.u.)"]
